Listing: ED50 of selected compounds
system: d-amphetamine lethality in mice; assay: block of lethal effects of d-amphetamine in aggregated mice (modified procedure of Burn and Hobbs); type: in vivo; details: Mus musculus; IP; mice; 8 hrs. pretreatment; read-out: Protective ED50 (95% confidence limits)
Returns: string containing the numeric result and its unit.

GET /values?readout=ED50&system=d-amphetamine lethality in mice&item= CC(=O)c1ccc2c(c1)N(CCCN1CCC(C(=O)c3ccc(F)cc3)CC1)c1ccccc1S2 [Example 6, Difumarate Sesquihydrate]
0.06 mg/kg

Now the compound O=C(c1ccc(F)cc1)C1CCN(CCCN2c3ccccc3Sc3ccccc32)CC1
1.27 mg/kg

// repeat for O=C(c1ccc(F)cc1)C1CCN(CCCN2c3ccccc3Sc3ccc(C(F)(F)F)cc32)CC1 and report
1.4 mg/kg

Now the compound O=C(c1ccc(F)cc1)C1CCN(CCCN2c3ccccc3Sc3ccc(Cl)cc32)CC1
0.19 mg/kg
